# Test system: MOLM1 and UCSD/AML1 (averaged)
# test_method_notes: cell viability relative to DMSO control (POC); higher = less growth inhibition
# condition_summary: 1 µM; 72 h
Hit rate of the full screen: of about 2,100 compounds, about 180 (8.6%) showed an effect of 50% or more. Shown is part of a subset that was picked to be rich in strong results.
Sorting guide: entries reporting cell viability beneath 90% go in the Y pile, the rest go in the N pile.

Solved entries:
CNCc1ccccc1; N
CN(C)CC(=O)OC[C@@H](O)[C@@H](O)[C@H](O)[C@@H](O)C(=O)O; N
CCCCCCCCCCCCCCCCCCOCC(O)CO (stereo not drawn); Y
C[N+](C)(C)CCOP(=O)(O)OP(=O)([O-])OC[C@H]1O[C@@H](n2ccc(N)nc2=O)[C@H](O)[C@@H]1O; Y
COc1ccc(-c2cc(=O)c3c(O)cc(OC)cc3o2)cc1; N

## Task Take the compound O=C1CC[C@]23/C=C/C(=O)NCCCCNCCCNC(=O)/C=C/c4ccc(c2c4)O[C@@H]3C1 and say whether its cell viability is less than 90%.
## Result N

## Task Find out if reported cell viability for COC1=C[C@@H](C)[C@@H]2C[C@H]3OC(=O)C[C@H]4C(C)=C(OC)C(=O)[C@H]([C@@]2(C)C1=O)[C@@]34C is less than 90%
## Result N

## Task Strictly below 90% in cell viability? Cc1c2oc3c(C)ccc(C(=O)N[C@@H]4C(=O)N[C@H](C(C)C)C(=O)N5CCC[C@H]5C(=O)N(C)CC(=O)N(C)[C@@H](C(C)C)C(=O)O[C@@H]4C)c3nc-2c(C(=O)N[C@@H]2C(=O)N[C@H](C(C)C)C(=O)N3CCC[C@H]3C(=O)N(C)CC(=O)N(C)[C@@H](C(C)C)C(=O)O[C@@H]2C)c(N)c1=O
## Result Y

## Task Check if cell viability falls below 90% for Cc1cccc(Nc2nc(-c3ccncc3)cs2)c1 .
## Result N

## Task Consider COc1ccc(C=CC(=O)O)cc1OC . Does its cell viability lie strictly below 90%?
## Result N

## Task Does this compound meet the criterion cell viability < 90%? CC1(C)C2CC(=O)O[C@@]3(C)C4=CC(=O)O[C@@H](c5ccoc5)[C@]4(C)CCC3[C@@]2(C)C=C[C@H]1O (stereo partly drawn)
## Result N

## Task Decide: cell viability of O=C1C=C2CC3(O)COc4c(ccc(O)c4O)C3=C2C=C1O (stereo not drawn) strictly below 90%?
## Result N

## Task Determine whether this compound shows cell viability lower than 90% (ties excluded): CC(C)C[C@H](NC(=O)CNC(=O)c1cc(Cl)ccc1Cl)B(O)O [Ixazomib (MLN2238)]
## Result Y

## Task cell viability strictly < 90% for this compound? CC(=O)OC1CCC2(C)C(=CCC3C2CCC2(C)C(C(C)CCCC(C)C)CCC32)C1 (stereo not drawn)
## Result N

## Task Please determine if CCN(CC)C(=S)SSC(=S)N(CC)CC is below 90% in terms of cell viability.
## Result Y
